measuredOn: FLT3(D835Y) (Homo sapiens, UniProt P36888, D835Y)
experimentNotes: ADP Glo kinase assay, FLT3(D835Y)
conditionDescription: apparent Ki calculated from Km (ATP) and IC50, read-out: FLT3 inhibition Ki
quantityKind: Ki (nM)
Field: numeric (nM). Do not append units.

*Q* I am curious: what Ki value has been reported for c1ccn2c(-c3ccnc(Nc4ccc(N5CCCCC5)cn4)n3)cnc2c1 ?
*A* 45

*Q* Note, next up: CC(=O)N1CCN(c2ccc(Nc3nccc(-c4cnc5ccc(Br)cn45)n3)nc2)CC1
*A* 10

*Q* Note, next up: CC(=O)N1CCN(c2ccc(Nc3nccc(-c4cnc5ccc(-c6cnc(N7CCN(C)CC7)nc6)cn45)n3)nc2)CC1
*A* 58

*Q* Note, next up: c1ccc(Nc2nccc(-c3cnc4ccccn34)n2)nc1
*A* 17

====

measuredOn: CDK4/D1 (Homo sapiens)
Sequence (P11802 whole entry, species assumed): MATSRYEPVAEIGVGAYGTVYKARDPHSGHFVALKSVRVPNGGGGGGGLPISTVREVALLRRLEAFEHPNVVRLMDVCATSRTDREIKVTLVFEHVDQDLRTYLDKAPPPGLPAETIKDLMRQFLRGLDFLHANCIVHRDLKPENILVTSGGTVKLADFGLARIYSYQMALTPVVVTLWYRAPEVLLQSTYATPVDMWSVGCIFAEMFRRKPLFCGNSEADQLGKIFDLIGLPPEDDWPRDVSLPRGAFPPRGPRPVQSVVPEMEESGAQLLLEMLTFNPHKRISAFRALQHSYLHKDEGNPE
Sequence (P24385 whole entry partner, species assumed): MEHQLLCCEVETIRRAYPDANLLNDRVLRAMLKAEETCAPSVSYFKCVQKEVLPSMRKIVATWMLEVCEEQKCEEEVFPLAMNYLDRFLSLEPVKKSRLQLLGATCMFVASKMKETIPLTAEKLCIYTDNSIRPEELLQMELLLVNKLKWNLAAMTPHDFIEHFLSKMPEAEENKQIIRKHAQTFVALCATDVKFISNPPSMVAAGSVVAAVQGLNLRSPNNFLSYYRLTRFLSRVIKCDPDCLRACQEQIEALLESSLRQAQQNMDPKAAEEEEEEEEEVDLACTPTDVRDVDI
experimentNotes: ADP Glo kinase assay, CDK4/D1
Type: biochemical
conditionDescription: CDK4D1; compound at 1 μM (values marked *); read-out: residual enzymatic activity (%) at 1 μM*
quantityKind: remaining activity at 1 µM (%)
Field: numeric (%). Do not append units.

*Q* I am curious: what remaining activity at 1 µM value has been reported for CC(=O)N1CCN(c2ccc(Nc3nccc(-c4cnc5ccc(-c6cc7ccccc7[nH]6)cn45)n3)nc2)CC1 ?
*A* 78

*Q* Note, next up: CC(=O)N1CCN(c2ccc(Nc3nccc(-c4cnc5ccc(-c6ccoc6)cn45)n3)nc2)CC1
*A* 75

*Q* Note, next up: CC(=O)N1CCN(c2ccc(Nc3nccc(-c4cnc5ccc(-c6csc7ccccc67)cn45)n3)nc2)CC1
*A* 77

*Q* Note, next up: CC(=O)N1CCN(c2ccc(Nc3ncc(C)c(-c4cnc5ccccn45)n3)nc2)CC1
*A* 63

*Q* Note, next up: CS(=O)(=O)N1CCN(c2ccc(Nc3nccc(-c4cnc5ccc(Br)cn45)n3)nc2)CC1
*A* 40

*Q* Note, next up: CN1CCN(c2ccc(Nc3nccc(-c4cnc5ccc(Br)cn45)n3)nc2)CC1
*A* 34

*Q* Note, next up: CC(=O)N1CCN(c2ccc(Nc3nccc(-c4cnc5ccc(-c6cc7ccccc7n6C)cn45)n3)nc2)CC1
*A* 95

*Q* Note, next up: CS(=O)(=O)N1CCN(c2ccc(Nc3nccc(-c4cnc5ccccn45)n3)nc2)CC1
*A* 76

*Q* Note, next up: CC(=O)N1CCN(c2ccc(Nc3nccc(-c4cnc5ccc(-c6cnn(C)c6)cn45)n3)nc2)CC1
*A* 70

*Q* Note, next up: CC(=O)N1CCN(c2ccc(Nc3nccc(-c4cnc5ccc(-c6cn(C)c7ccccc67)cn45)n3)nc2)CC1
*A* 55

====

measuredOn: CDK9/CyclinT1 (Homo sapiens, UniProt P50750)
Sequence (P50750 whole entry, species assumed): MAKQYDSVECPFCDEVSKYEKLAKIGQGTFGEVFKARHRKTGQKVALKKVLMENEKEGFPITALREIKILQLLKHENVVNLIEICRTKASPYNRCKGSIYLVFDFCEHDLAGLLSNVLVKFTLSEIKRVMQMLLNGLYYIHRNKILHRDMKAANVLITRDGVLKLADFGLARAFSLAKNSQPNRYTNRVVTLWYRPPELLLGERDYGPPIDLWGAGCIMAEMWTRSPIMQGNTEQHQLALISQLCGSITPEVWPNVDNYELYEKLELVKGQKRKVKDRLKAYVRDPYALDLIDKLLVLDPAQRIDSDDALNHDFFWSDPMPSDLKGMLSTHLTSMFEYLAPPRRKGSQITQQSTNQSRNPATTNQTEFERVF
Sequence (O60563 whole entry partner, species assumed): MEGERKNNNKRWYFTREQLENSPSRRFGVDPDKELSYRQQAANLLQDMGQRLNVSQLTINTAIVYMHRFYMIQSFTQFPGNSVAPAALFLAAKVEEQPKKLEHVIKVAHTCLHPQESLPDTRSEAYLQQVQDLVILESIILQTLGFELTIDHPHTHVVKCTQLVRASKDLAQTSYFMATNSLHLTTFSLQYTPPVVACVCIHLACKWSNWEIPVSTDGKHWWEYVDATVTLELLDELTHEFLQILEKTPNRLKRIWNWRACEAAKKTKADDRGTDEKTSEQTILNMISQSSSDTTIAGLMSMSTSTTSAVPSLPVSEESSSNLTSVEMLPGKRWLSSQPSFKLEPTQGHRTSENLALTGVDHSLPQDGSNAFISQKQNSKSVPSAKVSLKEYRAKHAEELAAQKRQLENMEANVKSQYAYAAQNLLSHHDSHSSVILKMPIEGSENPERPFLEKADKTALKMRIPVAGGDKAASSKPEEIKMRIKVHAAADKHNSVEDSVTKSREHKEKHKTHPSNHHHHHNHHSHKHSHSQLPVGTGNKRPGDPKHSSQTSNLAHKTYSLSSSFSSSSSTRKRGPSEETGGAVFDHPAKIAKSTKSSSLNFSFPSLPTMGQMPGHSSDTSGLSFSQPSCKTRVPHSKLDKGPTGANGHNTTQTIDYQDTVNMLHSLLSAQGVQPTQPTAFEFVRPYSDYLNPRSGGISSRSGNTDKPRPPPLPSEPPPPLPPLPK
experimentNotes: ADP Glo kinase assay, CDK9/CyclinT1
Type: biochemical
conditionDescription: CDK9T1; compound at 1 μM (values marked *); read-out: residual enzymatic activity (%) at 1 μM*
quantityKind: remaining activity at 1 µM
Answer format: value, then unit.

*Q* I am curious: what remaining activity at 1 µM value has been reported for CC(=O)N1CCN(c2ccc(Nc3nccc(-c4cnc5ccc(-c6cn(S(=O)(=O)c7ccccc7)c7ccccc67)cn45)n3)nc2)CC1 [Cmpd 34] ?
*A* 100%

*Q* Note, next up: CC(=O)N1CCN(c2ccc(Nc3nccc(-c4cnc5ccc(-c6c[nH]c7ccccc67)cn45)n3)nc2)CC1 [Cmpd 41]
*A* 42%

*Q* Note, next up: CC(=O)N1CCN(c2ccc(Nc3nccc(-c4cnc5ccc(-c6cnn(C)c6)cn45)n3)nc2)CC1 [Cmpd 27]
*A* 31%

*Q* Note, next up: CC(=O)N1CCN(c2ccc(Nc3nccc(-c4cnc5ccc(Nc6ccccc6)cn45)n3)nc2)CC1 [Cmpd 28]
*A* 61%

*Q* Note, next up: CC(=O)N1CCN(c2ccc(Nc3ncc(F)c(-c4cnc5ccc(C(F)(F)F)cn45)n3)nc2)CC1 [Cmpd 32]
*A* 82%

*Q* Note, next up: CS(=O)(=O)N1CCN(c2ccc(Nc3nccc(-c4cnc5ccc(-c6ccccc6)cn45)n3)nc2)CC1 [Cmpd 54]
*A* 52%

*Q* Note, next up: CS(=O)(=O)N1CCN(c2ccc(Nc3nccc(-c4cnc5ccccn45)n3)nc2)CC1 [Cmpd 48]
*A* 43%

====

measuredOn: CDK2E1 (Homo sapiens, UniProt P24941)
conditionDescription: 1 µM
quantityKind: activity
Answer format: value, then unit.

*Q* I am curious: what activity value has been reported for CC(=O)N1CCN(c2ccc(Nc3nccc(-c4cnc5ccc(-c6coc7ccccc67)cn45)n3)nc2)CC1 [Cmpd 33] ?
*A* 84%

*Q* Note, next up: CC(=O)N1CCN(c2ccc(Nc3nccc(-c4cnc5ccc(-c6cn(S(=O)(=O)c7ccccc7)c7ncccc67)cn45)n3)nc2)CC1 [Cmpd 38]
*A* 82%

*Q* Note, next up: CC(=O)N1CCN(c2ccc(Nc3nccc(-c4cnc5ccc(-c6cn[nH]c6)cn45)n3)nc2)CC1 [Cmpd 24]
*A* 24%

*Q* Note, next up: CC(=O)N1CCN(c2ccc(Nc3nccc(-c4cnc5ccc(-c6c[nH]c7ccccc67)cn45)n3)nc2)CC1 [Cmpd 41]
*A* 81%

*Q* Note, next up: CC(=O)N1CCN(c2ccc(Nc3nccc(-c4cnc5ccc(-c6cccc7[nH]ccc67)cn45)n3)nc2)CC1 [Cmpd 36]
*A* 89%

*Q* Note, next up: Clc1ccc(Nc2nccc(-c3cnc4ccccn34)n2)nc1 [Cmpd 52]
*A* 52%

*Q* Note, next up: CC(=O)N1CCN(c2ccc(Nc3ncc(F)c(-c4cnc5ccc(F)cn45)n3)nc2)CC1 [Cmpd 30]
*A* 51%

*Q* Note, next up: CS(=O)(=O)N1CCN(c2ccc(Nc3nccc(-c4cnc5ccc(Br)cn45)n3)nc2)CC1 [Cmpd 50]
*A* 74%

*Q* Note, next up: CC(=O)N1CCN(c2ccc(Nc3nccc(-c4cnc5ccc(-c6ccco6)cn45)n3)nc2)CC1 [Cmpd 12]
*A* 67%

*Q* Note, next up: CC(=O)N1CCN(c2ccc(Nc3nccc(-c4cnc5ccc(I)cn45)n3)nc2)CC1 [Cmpd 43]
*A* 75%

*Q* Note, next up: CC(=O)N1CCN(c2ccc(Nc3nccc(-c4cnc5ccc(-c6cnc(N)nc6)cn45)n3)nc2)CC1 [Cmpd 18]
*A* 97%

*Q* Note, next up: c1ccn2c(-c3ccnc(Nc4ccc(N5CCOCC5)cn4)n3)cnc2c1 [Cmpd 4]
*A* 72%

*Q* Note, next up: CC(=O)N1CCN(c2ccc(Nc3nccc(-c4cnc5ccc(F)cn45)n3)nc2)CC1 [Cmpd 8]
*A* 59%

*Q* Note, next up: CC(=O)N1CCN(c2ccc(Nc3nccc(-c4cnc5ccc(-c6cc7ccccc7[nH]6)cn45)n3)nc2)CC1 [Cmpd 37]
*A* 91%

*Q* Note, next up: CC(=O)N1CCN(c2ccc(Nc3nccc(-c4cnc5ccc(-c6c[nH]c7ncccc67)cn45)n3)nc2)CC1 [Cmpd 42]
*A* 46%

*Q* Note, next up: CC(=O)N1CCN(c2ccc(Nc3ncc(F)c(-c4cnc5ccc(C(F)(F)F)cn45)n3)nc2)CC1 [Cmpd 32]
*A* 65%

*Q* Note, next up: c1ccn2c(-c3ccnc(Nc4ccc(N5CCNCC5)cn4)n3)cnc2c1 [Cmpd 1]
*A* 69%

*Q* Note, next up: CC(=O)N1CCN(c2ccc(Nc3nccc(-c4cnc5ccc(-c6ccccc6)cn45)n3)nc2)CC1 [Cmpd 14]
*A* 56%

*Q* Note, next up: CC(=O)N1CCN(c2ccc(Nc3nccc(-c4cnc5ccc(-c6cc7ccccc7s6)cn45)n3)nc2)CC1 [Cmpd 22]
*A* 83%

*Q* Note, next up: CC(=O)N1CCN(c2ccc(Nc3nccc(-c4cnc5ccc(-c6csc7ccccc67)cn45)n3)nc2)CC1 [Cmpd 35]
*A* 100%

*Q* Note, next up: CC(=O)N1CCN(c2ccc(Nc3nccc(-c4cnc5ccc(-c6cc[nH]c6)cn45)n3)nc2)CC1 [Cmpd 23]
*A* 76%

*Q* Note, next up: CC(=O)N1CCCN(c2ccc(Nc3nccc(-c4cnc5ccccn45)n3)nc2)CC1 [Cmpd 6]
*A* 85%

*Q* Note, next up: CC(=O)N1CCN(c2ccc(Nc3nccc(-c4cnc5ccc(-c6ccsc6)cn45)n3)nc2)CC1 [Cmpd 26]
*A* 73%

*Q* Note, next up: CC(=O)N1CCN(c2ccc(Nc3nccc(-c4cnc5ccc(Cl)cn45)n3)nc2)CC1 [Cmpd 9]
*A* 64%

*Q* Note, next up: Brc1ccc(Nc2nccc(-c3cnc4ccccn34)n2)nc1 [Cmpd 47]
*A* 103%

*Q* Note, next up: COc1ncc(-c2ccc3ncc(-c4ccnc(Nc5ccc(N6CCN(C(C)=O)CC6)cn5)n4)n3c2)cn1 [Cmpd 19]
*A* 82%

*Q* Note, next up: CC(=O)N1CCN(c2ccc(Nc3nccc(-c4cnc5ccc(C)cn45)n3)nc2)CC1 [Cmpd 13]
*A* 52%

*Q* Note, next up: CN1CCN(c2ccc(Nc3nccc(-c4cnc5ccc(Br)cn45)n3)nc2)CC1 [Cmpd 45]
*A* 49%

*Q* Note, next up: CS(=O)(=O)N1CCN(c2ccc(Nc3nccc(-c4cnc5ccccn45)n3)nc2)CC1 [Cmpd 48]
*A* 73%

*Q* Note, next up: CC(=O)N1CCN(c2ccc(Nc3nccc(-c4cnc5ccc(Nc6ccccc6)cn45)n3)nc2)CC1 [Cmpd 28]
*A* 86%

*Q* Note, next up: c1ccn2c(-c3ccnc(Nc4ccc(N5CCCCC5)cn4)n3)cnc2c1 [Cmpd 5]
*A* 81%

*Q* Note, next up: CC(=O)N1CCN(c2ccc(Nc3nccc(-c4cnc5ccc(-c6cnn(C)c6)cn45)n3)nc2)CC1 [Cmpd 27]
*A* 89%
